This collection of values is drawn from patent US7795261B2.

Target: NK1 (Homo sapiens)
Sequence (P25103 whole entry): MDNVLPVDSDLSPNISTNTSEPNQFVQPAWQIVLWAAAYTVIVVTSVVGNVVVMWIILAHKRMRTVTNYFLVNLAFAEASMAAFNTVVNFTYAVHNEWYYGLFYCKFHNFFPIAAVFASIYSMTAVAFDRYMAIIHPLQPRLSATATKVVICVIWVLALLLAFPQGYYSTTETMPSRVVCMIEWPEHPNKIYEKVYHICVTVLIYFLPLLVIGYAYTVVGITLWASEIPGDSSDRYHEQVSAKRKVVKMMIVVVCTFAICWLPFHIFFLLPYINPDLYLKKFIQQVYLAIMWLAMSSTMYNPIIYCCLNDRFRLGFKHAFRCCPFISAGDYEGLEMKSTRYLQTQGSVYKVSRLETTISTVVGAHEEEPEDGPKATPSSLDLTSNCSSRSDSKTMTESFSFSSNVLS
Experiment: Signal transduction (ST), intracellular Ca++ (FLIPR), NK1 antagonistic activity
Assay type: cell-based
Conditions: read-out: pIC50 NK1 (converted)
metric-name: IC50 (µM)

CC(C)(C)OCCC(=O)N1CCC(N2CCN(C3CCN(C(=O)c4cc(C(F)(F)F)cc(C(F)(F)F)c4)C(Cc4ccccc4)C3)CC2)C1 (stereo not shown): 0.02
N#Cc1cccc(C(=O)N2CCC(N3CCN(C4CCN(C(=O)c5cc(C(F)(F)F)cc(C(F)(F)F)c5)C(Cc5ccccc5)C4)CC3)C2)c1 (single isomer, unassigned) [Compound 193]: 0.00794
N#CN=C(N1CCOCC1)N1CCC(N2CCN([C@H]3CCN(C(=O)c4cc(C(F)(F)F)cc(C(F)(F)F)c4)[C@H](Cc4ccccc4)C3)CC2)C1 (stereo partly shown): 0.0158

[1] COC(C(=O)N1CCC(N2CCN(C3CCN(C(=O)c4cc(C(F)(F)F)cc(C(F)(F)F)c4)C(Cc4ccccc4)C3)CC2)C1)c1ccccc1 (stereo not shown)
[2] O=C(c1cc(C(F)(F)F)cc(C(F)(F)F)c1)N1CC[C@H](N2CCN(C3CCN(S(=O)(=O)c4ccccc4COCc4ccccc4)C3)CC2)C[C@H]1Cc1ccccc1 (stereo partly shown)
[3] O=C(c1cc(C(F)(F)F)cc(C(F)(F)F)c1)N1CCC(N2CCN(C3CCN(Cc4ccccc4)C3)CC2)CC1Cc1ccccc1 (stereo not shown)
-- ask Hi! Can you put these in order of IC50, lowest number first? // list labels; follow requested order
-- reply 1, 3, 2
(1: 0.0126 µM, 3: 0.1 µM, 2: 0.251 µM)

[a] Cn1cccc1C(=O)CN1CCC(N2CCN([C@H]3CCN(C(=O)c4cc(C(F)(F)F)cc(C(F)(F)F)c4)[C@H](Cc4ccccc4)C3)CC2)C1 (stereo partly shown)
[b] CC(C)(C)C(=O)N1CCC(N2CCN([C@@H]3CCN(C(=O)c4cc(C(F)(F)F)cc(C(F)(F)F)c4)[C@H](Cc4ccc(F)c(F)c4)C3)CC2)C1 (single isomer, unassigned)
-- ask Looking at recorded values for IC50, does a or b come in lower? API: response body contains the label of the selected item.
-- reply b

[I] O=C(c1ccoc1)N1CCC(N2CCN(C3CCN(C(=O)c4cc(C(F)(F)F)cc(C(F)(F)F)c4)C(Cc4ccccc4)C3)CC2)C1 (single isomer, unassigned) [Compound 33]
[II] O=C(c1cccnc1)N1CCC(N2CCN([C@H]3CCN(C(=O)c4cc(C(F)(F)F)cc(C(F)(F)F)c4)[C@H](Cc4ccccc4)C3)CC2)C1 (stereo partly shown)
-- ask Parameter check: reported IC50 is higher for which label, I or II ? API: response body contains the label of the selected item.
-- reply II

[A] O=C(C1CCOC1)N1CCC(N2CCN(C3CCN(C(=O)c4cc(C(F)(F)F)cc(C(F)(F)F)c4)C(Cc4ccc(Cl)c(Cl)c4)C3)CC2)C1 (stereo not shown) [Compound 172]
[B] Cc1noc(C)c1C(=O)N1CCC(N2CCN([C@H]3CCN(C(=O)c4cc(C(F)(F)F)cc(C(F)(F)F)c4)[C@H](Cc4ccccc4)C3)CC2)C1 (stereo partly shown)
-- ask Parameter check: reported IC50 is higher for which label, A or B ? API: response body contains the label of the selected item.
-- reply B

[1] O=C(C1COC2CCCCC2O1)N1CCC(N2CCN([C@H]3CCN(C(=O)c4cc(C(F)(F)F)cc(C(F)(F)F)c4)[C@H](Cc4ccccc4)C3)CC2)C1 (stereo partly shown)
[2] O=C([C@@H]1CCCN1)N1CCC(N2CCN([C@H]3CCN(C(=O)c4cc(C(F)(F)F)cc(C(F)(F)F)c4)[C@H](Cc4ccccc4)C3)CC2)C1 (stereo partly shown)
-- ask Parameter check: reported IC50 is higher for which label, 1 or 2 ? API: response body contains the label of the selected item.
-- reply 2
(2: 0.126 µM, 1: 0.00794 µM)

[A] CC(C)(C)OC(=O)N1CCCCC1C(=O)N1CCC(N2CCN(C3CCN(C(=O)c4cc(C(F)(F)F)cc(C(F)(F)F)c4)C(Cc4ccccc4)C3)CC2)C1 (stereo not shown)
[B] O=C(C1CCOC1)N1CCC(N2CCN(C3CCN(C(=O)c4cc(C(F)(F)F)cc(C(F)(F)F)c4)C(Cc4ccc(Cl)c(Cl)c4)C3)CC2)C1 (single isomer, unassigned) [Compound 330]
[C] O=C(c1cc(C(F)(F)F)cc(C(F)(F)F)c1)N1CCC(N2CCN(C3CCNC3)CC2)CC1Cc1ccccc1 (stereo not shown)
-- ask hey, can you rank those molecules up there by IC50? biggest number first please // list labels; follow requested order
-- reply C, A, B

[P] Cc1nc2c(o1)CCn1ccnc1C2N1CCC(N2CCN(C3CCN(C(=O)c4cc(C(F)(F)F)cc(C(F)(F)F)c4)C(Cc4ccccc4)C3)CC2)C1 (stereo not shown)
[Q] COc1ccc(OC)c(S(=O)(=O)N2CCC(N3CCN([C@H]4CCN(C(=O)c5cc(C(F)(F)F)cc(C(F)(F)F)c5)[C@H](Cc5ccccc5)C4)CC3)C2)c1 (stereo partly shown)
[R] O=C(c1ccccc1Cl)N1CCC(N2CCN([C@@H]3CCN(C(=O)c4cc(C(F)(F)F)cc(C(F)(F)F)c4)[C@H](Cc4ccc(Cl)c(Cl)c4)C3)CC2)C1 (relative stereo)
[S] COc1ccccc1C(=O)N1CCC(N2CCN([C@H]3CCN(C(=O)c4cc(C(F)(F)F)cc(C(F)(F)F)c4)[C@H](Cc4ccccc4)C3)CC2)C1 (stereo partly shown)
-- ask hey, can you rank those molecules up there by IC50? biggest number first please // list labels; follow requested order
-- reply R, Q, P, S
(R: 0.126 µM, Q: 0.02 µM, P: 0.0126 µM, S: 0.00794 µM)
